- Tested on: Monochoria vaginalis
- Assay Protocol: Herbicidal activity by paddy field soil treatment (Test Example 1)
- Type: in vivo
- Set-up: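 index 0 to 10 in 10% steps of herbicidal effect with 10 meaning complete death and 0 below 10%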
- Measurement Setup: 1000 g of effective component per hectare, evaluated on day 21 after the treatment, criteria of Table 72
Observed Property: Herbicidal effects index number, Monochoria vaginalis
Give bare numbers.

Compound	Value Reported
Cc1ccc(-n2c(=O)c(C(=O)C3=C(O)CCCC3=O)nn(C)c2=O)cn1	10
Cc1cc(-n2c(=O)c(C(=O)C3=C(O)CCCC3=O)nn(C)c2=O)ccc1Cl	10
Cc1cccc(C)c1-n1c(=O)c(C(=O)C2=C(O)CCCC2=O)nn(C)c1=O	10
O=C1CCCC(O)=C1C(=O)c1nn(C(F)F)c(=O)n(-c2ccccc2)c1=O	10
CN(c1ccccc1)n1c(=O)c(C(=O)O)nn(C)c1=O	10
Cn1nc(C(=O)C2=C(O)CCCC2=O)c(=O)n(-c2cccc(F)c2F)c1=O	10

Give me Herbicidal effects index number, Monochoria vaginalis for each of these compounds, listed below.
1. Cn1nc(C(=O)C2=C(O)CCCC2=O)c(=O)n(-c2ccc(C(F)(F)F)cc2)c1=O
2. CCN(c1ccccc1)n1c(=O)c(C(=O)O)nn(C)c1=O

Output:
[10, 10]

Give me Herbicidal effects index number, Monochoria vaginalis for each of these compounds, listed below.
1. C=CCn1c(=O)c(C(=O)C2=C(O)CCCC2=O)nn(C)c1=O
2. CCCS(=O)(=O)Oc1c(C(=O)c2nn(C)c(=O)n(-c3ccccc3)c2=O)cnn1C(C)C
3. Cn1nc(C(=O)C2=C(O)CCCC2=O)c(=O)n(-c2ccccn2)c1=O

Output:
1: 10; 2: 8; 3: 10

Give me Herbicidal effects index number, Monochoria vaginalis for each of these compounds, listed below.
1. CCCCCn1nc(C(=O)C2=C(O)CCCC2=O)c(=O)n(-c2ccccc2)c1=O
2. Cn1nc(C(=O)C2=C(O)CCCC2=O)c(=O)n(-c2cc(F)cc(F)c2)c1=O
3. COc1cc(-n2c(=O)c(C(=O)C3=C(O)CCCC3=O)nn(C)c2=O)cc(OC)c1OC
4. Cn1nc(C(=O)C2=C(O)CCCC2=O)c(=O)n(C2C=CCCC2)c1=O (stereo not shown)

Output:
1: 8; 2: 10; 3: 10; 4: 10

Give me Herbicidal effects index number, Monochoria vaginalis for each of these compounds, listed below.
1. Cn1nc(C(=O)C2=C(O)CCCC2=O)c(=O)n(-c2cccc([N+](=O)[O-])c2)c1=O
2. Cc1cc(Br)ccc1-n1c(=O)c(C(=O)C2=C(O)CCCC2=O)nn(C)c1=O
3. COc1ccccc1-n1c(=O)c(C(=O)C2=C(O)CCCC2=O)nn(C)c1=O
4. Cc1ccc(-n2c(=O)c(C(=O)C3=C(O)CCCC3=O)nn(C)c2=S)nc1
5. Cc1cc(Cl)ccc1-n1c(=O)c(C(=O)C2=C(O)CCCC2=O)nn(C)c1=O
6. Cc1ccc(-n2c(=O)c(C(=O)C3=C(O)CCCC3=O)nn(C)c2=O)c(Cl)c1
7. Cc1cc(Cl)cc(-n2c(=O)c(C(=O)C3=C(O)CCCC3=O)nn(C)c2=O)c1

Output:
1. 10
2. 10
3. 10
4. 10
5. 10
6. 9
7. 10

Give me Herbicidal effects index number, Monochoria vaginalis for each of these compounds, listed below.
1. COc1ccc(-n2c(=O)c(C(=O)C3=C(O)CCCC3=O)nn(C)c2=O)cc1F
2. O=C1CCCC(O)=C1C(=O)c1nn(-c2ccccc2)c(=O)n(-c2ccccc2)c1=O
3. COc1ccc(-n2c(=O)c(C(=O)C3=C(O)CCCC3=O)nn(C)c2=O)cn1

Output:
1: 10; 2: 8; 3: 10

Give me Herbicidal effects index number, Monochoria vaginalis for each of these compounds, listed below.
1. CCn1c(=O)c(C(=O)C2=C(O)CCCC2=O)nn(C)c1=O
2. Cc1ccc(-n2c(=O)c(C(=O)O)nn(C)c2=O)nc1
3. Cn1nc(C(=O)C2=C(O)CCCC2=O)c(=O)n(-c2ccc([N+](=O)[O-])cc2)c1=O
4. Cn1nc(C(=O)C2=C(O)CCCC2=O)c(=O)n(-c2cccnc2Cl)c1=O
5. CCON=C(C)Cn1c(=O)c(C(=O)O)nn(C)c1=O
6. COc1cc(-n2c(=O)c(C(=O)C3=C(O)CCCC3=O)nn(C)c2=O)ccc1C
7. Cn1nc(C(=O)C2=C(O)CCCC2=O)c(=O)n(-c2ccccc2C#N)c1=O

Output:
1: 10; 2: 10; 3: 10; 4: 8; 5: 10; 6: 10; 7: 10

Give me Herbicidal effects index number, Monochoria vaginalis for each of these compounds, listed below.
1. COc1ccc(-n2c(=O)c(C(=O)C3=C(O)CCCC3=O)nn(C)c2=O)cc1
2. Cn1nc(C(=O)C2=C(O)CCCC2=O)c(=O)n(-c2c(F)c(F)c(F)c(F)c2F)c1=O
3. Cc1cc(C)nc(-n2c(=O)c(C(=O)O)nn(C)c2=O)n1
4. CCON=C(C)Cn1c(=O)c(C(=O)C2=C(O)CCCC2=O)nn(C)c1=O

Output:
8
10
10
10

Input: # return recorded Herbicidal effects index number, Monochoria vaginalis for entry Cn1nc(C(=O)C2=C(O)CCCC2=O)c(=O)n(-c2cc(Cl)c(Cl)c(Cl)c2)c1=O
Output: 10
